So I've got a bunch of binders here, and I need their EC50 values.
- TEST TARGET: T1, human Tissue Factor on human TF-positive cells (human, UniProt P13726 33-295)
- T1 construct: also called hTF; CD142
- PROCEDURE DETAILS: flow cytometry, antibody titration on A431 cells (human TF), 4-parameter fit of MFI
Write the number in nM without appending the unit.

So for 39A (antibody, human IgG1, V domains shown, Human IgG1; also called antibody designated 39A) VH: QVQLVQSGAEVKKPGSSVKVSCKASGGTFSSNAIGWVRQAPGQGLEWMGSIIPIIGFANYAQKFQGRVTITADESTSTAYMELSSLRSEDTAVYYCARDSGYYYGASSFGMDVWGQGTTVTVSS VL: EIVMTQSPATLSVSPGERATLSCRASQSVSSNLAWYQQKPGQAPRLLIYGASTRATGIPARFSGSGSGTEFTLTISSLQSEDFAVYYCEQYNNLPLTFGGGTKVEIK , the logged EC50 turned out to be 0.34

// EC50 value for 25G1 (antibody, human IgG1, V domains shown, Human IgG1; also called antibody designated 25G1) VH: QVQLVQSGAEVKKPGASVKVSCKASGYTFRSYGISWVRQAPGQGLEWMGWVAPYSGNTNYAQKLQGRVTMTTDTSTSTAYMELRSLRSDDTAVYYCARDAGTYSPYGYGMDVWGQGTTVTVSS VL: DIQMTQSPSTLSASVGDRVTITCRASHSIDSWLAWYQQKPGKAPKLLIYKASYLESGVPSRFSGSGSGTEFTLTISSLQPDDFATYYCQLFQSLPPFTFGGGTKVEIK : 0.56

Query 25A3 (antibody, human IgG1, V domains shown, Human IgG1; also called antibody designated 25A3) VH: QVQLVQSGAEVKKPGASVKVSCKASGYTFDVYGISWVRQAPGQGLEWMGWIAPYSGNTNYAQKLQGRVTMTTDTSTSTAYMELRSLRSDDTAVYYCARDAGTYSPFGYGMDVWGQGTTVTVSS VL: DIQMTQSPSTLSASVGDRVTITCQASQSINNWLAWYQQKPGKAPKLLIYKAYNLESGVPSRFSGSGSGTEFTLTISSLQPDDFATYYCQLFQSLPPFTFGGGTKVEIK yields EC50 of 0.5

EC50 reading for 54E (antibody, human IgG1, V domains shown, Human IgG1; also called antibody designated 54E) VH: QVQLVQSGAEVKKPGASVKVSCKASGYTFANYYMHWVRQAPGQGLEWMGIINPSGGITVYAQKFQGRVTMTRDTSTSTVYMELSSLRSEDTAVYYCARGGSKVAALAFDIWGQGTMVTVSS VL: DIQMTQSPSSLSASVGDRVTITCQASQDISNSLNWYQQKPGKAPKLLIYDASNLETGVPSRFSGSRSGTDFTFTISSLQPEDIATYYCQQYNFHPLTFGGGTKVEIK : 0.89
